- system_name: Rat recombinant KHK-A (Rattus norvegicus (Rat))
- Sequence (Q02974 other isoform, or with tags, fused parts or gaps): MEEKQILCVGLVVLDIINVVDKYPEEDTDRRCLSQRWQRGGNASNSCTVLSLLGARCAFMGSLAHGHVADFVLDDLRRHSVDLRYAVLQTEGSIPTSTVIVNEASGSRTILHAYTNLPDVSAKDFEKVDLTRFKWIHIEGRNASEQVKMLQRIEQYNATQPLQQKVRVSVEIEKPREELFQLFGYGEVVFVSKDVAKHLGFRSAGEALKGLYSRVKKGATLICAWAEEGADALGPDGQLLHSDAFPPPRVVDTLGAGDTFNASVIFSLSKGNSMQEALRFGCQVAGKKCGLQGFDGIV
- assay_procedure: KHK inhibition assay, recombinant isozyme (coupled pyruvate kinase/LDH, NADH absorbance 340 nm)
- test_context: recombinant isozyme 6 nM, fructose 2 mM, ATP 0.1 mM
value_type: IC50
Your answer should be a number followed by the unit of measure.

Query block: IC50 lookup needed for CCc1c(-c2cnn(CC(=O)N3CCNCC3)c2)nc(N2CC[C@@H]2C)nc1C(F)(F)F [Compound A6] , thanks.
Result block: 2.3 nM

Query block: Same question, C[C@H]1CCN1c1nc(-c2cnn(CC(=O)N3CCNCC3)c2)cc(C(F)F)n1 [Compound A7] this time
Result block: 46 nM

Query block: Same question, COc1c(-c2cnn(CC(=O)N3CCNCC3)c2)nc(N2CC[C@@H]2C)nc1C(F)(F)F [Compound A5] this time
Result block: 26 nM

Query block: Same question, O=C(Cn1cc(-c2cc(C(F)(F)F)nc(N3CC[C@@H]3C(F)(F)F)n2)cn1)N1CCNCC1 [Compound A2] this time
Result block: 9 nM

Query block: Same question, O=C(Cn1cc(-c2cc(C(F)(F)F)nc(N3CC[C@@H]3C(F)F)n2)cn1)N1CCNCC1 [Compound A33] this time
Result block: 23 nM

Query block: Same question, O=C(Cn1cc(-c2nc(N3CC[C@@H]3C(F)F)nc(C(F)(F)F)c2Cl)cn1)N1CCNCC1 [Compound A38] this time
Result block: 7.3 nM

Query block: Same question, C[C@H]1[C@H](O)CN1c1nc(-c2cnn(C3CN(C)C3)c2)c(Cl)c(C(F)(F)F)n1 [Compound A10] this time
Result block: 0.2 nM

Query block: Same question, COc1c(-c2cnn(CC(=O)N3CCNCC3)c2)nc(N2CC[C@@H]2C(F)(F)F)nc1C(F)(F)F [Compound A28] this time
Result block: 4.1 nM

Data provenance is patent US20240409530A1.
